Numbers sourced from patent US6784165B1.

# Test system: guinea pig isolated heart
# Assay method text: Guinea pig isolated heart paced at 300-360 bpm: AV conduction interval versus coronary perfusate flow
# Measurement context: Cavia porcellus; paced at 300-360 beats per minute; read-out: EC50 for increase in coronary perfusate flow
Endpoint label: EC50 (nM)
Report as a plain number; the unit nM is understood.

Hello, please tell me recorded EC50 for this one: CCNC(=O)[C@H]1O[C@@H](n2cnc3c(NC4CCCC4)ncnc32)[C@H](O)[C@@H]1O [Compound A] 32

* * *

# Target or system: adenosine A1 receptor (Rattus norvegicus, UniProt P25099)
# Sequence (P25099 whole entry): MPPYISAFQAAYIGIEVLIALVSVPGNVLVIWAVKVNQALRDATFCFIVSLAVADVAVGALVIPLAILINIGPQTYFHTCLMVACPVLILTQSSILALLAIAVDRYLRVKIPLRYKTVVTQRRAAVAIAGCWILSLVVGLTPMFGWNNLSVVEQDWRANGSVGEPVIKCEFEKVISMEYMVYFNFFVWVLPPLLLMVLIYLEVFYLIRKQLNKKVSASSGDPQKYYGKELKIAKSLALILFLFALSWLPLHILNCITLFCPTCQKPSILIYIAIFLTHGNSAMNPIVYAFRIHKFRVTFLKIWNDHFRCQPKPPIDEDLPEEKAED
# Assay method text: Peak bradycardia after bolus intravenous injection in conscious rats
# Format: in vivo
# Design: from tissue; host or cells: whole animal (conscious Sprague-Dawley rats)
# Measurement context: rat, bolus intravenous injections, read-out: ED50
Would you kindly list ED50 for each of these molecules?
Report as a plain number; the unit µmol/kg is understood.

Hello, please tell me recorded ED50 for this one: CCNC(=O)[C@H]1O[C@@H](n2cnc3c(NC4CCCC4)ncnc32)[C@H](O)[C@@H]1O 0.0083

Hello, please tell me recorded ED50 for this one: O=C(NCCO)[C@H]1O[C@@H](n2cnc3c(NC4CCCC4)ncnc32)[C@H](O)[C@@H]1O 0.0074

Hello, please tell me recorded ED50 for this one: CC(C)(C)NC(=O)[C@H]1O[C@@H](n2cnc3c(NC4CCCC4)ncnc32)[C@H](O)[C@@H]1O 0.363

Hello, please tell me recorded ED50 for this one: CCCNC(=O)[C@H]1O[C@@H](n2cnc3c(NC4CCCC4)ncnc32)[C@H](O)[C@@H]1O 0.0323

* * *

# Assay method text: Oral bioavailability estimated from bradycardia AUC oral vs intravenous in conscious rats
# Format: in vivo, rat
# Measurement context: male, Sprague-Dawley, rat, in vivo
Endpoint label: bioavailability (%)
Report as a plain number; the unit % is understood.

Hello, please tell me recorded bioavailability for this one: CCCNC(=O)[C@H]1O[C@@H](n2cnc3c(NC4CCCC4)ncnc32)[C@H](O)[C@@H]1O 14

Hello, please tell me recorded bioavailability for this one: CCNC(=O)[C@H]1O[C@@H](n2cnc3c(NC4CCCC4)ncnc32)[C@H](O)[C@@H]1O 53

Hello, please tell me recorded bioavailability for this one: CCC(CC)Nc1ncnc2c1ncn2[C@@H]1O[C@H](C(=O)NCCO)[C@@H](O)[C@H]1O 9.9

Hello, please tell me recorded bioavailability for this one: CC(C)NC(=O)[C@H]1O[C@@H](n2cnc3c(NC4CCCC4)ncnc32)[C@H](O)[C@@H]1O 28

Hello, please tell me recorded bioavailability for this one: CNC(=O)[C@H]1O[C@@H](n2cnc3c(NC4CCCC4)ncnc32)[C@H](O)[C@@H]1O 20

Hello, please tell me recorded bioavailability for this one: O=C(NCCO)[C@H]1O[C@@H](n2cnc3c(NC4CCCC4)ncnc32)[C@H](O)[C@@H]1O 8.4

Hello, please tell me recorded bioavailability for this one: O=C(NC1CC1)[C@H]1O[C@@H](n2cnc3c(NC4CCCC4)ncnc32)[C@H](O)[C@@H]1O 38

Hello, please tell me recorded bioavailability for this one: CC(C)(C)NC(=O)[C@H]1O[C@@H](n2cnc3c(NC4CCCC4)ncnc32)[C@H](O)[C@@H]1O 34

Hello, please tell me recorded bioavailability for this one: CCNC(=O)[C@H]1O[C@@H](n2cnc3c(NC(CC)CC)ncnc32)[C@H](O)[C@@H]1O 20
